Provide the reported inhibition at 0.1 µM of each item.
- tested target: Erk2 (Homo sapiens, UniProt P28482)
- Construct: purchased Carna Biosciences
- Sequence (P28482 whole entry): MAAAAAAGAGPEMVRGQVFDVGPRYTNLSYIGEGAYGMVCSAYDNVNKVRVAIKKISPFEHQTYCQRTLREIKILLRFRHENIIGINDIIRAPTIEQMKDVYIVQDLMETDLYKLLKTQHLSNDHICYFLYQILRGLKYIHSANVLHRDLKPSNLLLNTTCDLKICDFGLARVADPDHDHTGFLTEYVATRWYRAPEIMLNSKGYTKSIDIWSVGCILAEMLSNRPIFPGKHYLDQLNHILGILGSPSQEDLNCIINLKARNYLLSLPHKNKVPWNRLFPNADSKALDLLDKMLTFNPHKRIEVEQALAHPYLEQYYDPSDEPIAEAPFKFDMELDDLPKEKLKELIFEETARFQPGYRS
- method notes: LabChip (Caliper) kinase assay, Erk2
- Format: biochemical
- particulars: compound at 100 nM, read-out: remaining kinase activity (in %) / percentage of inhibition
Hi! Could you send only the number? It should be in %, unit omitted.

Query block: Sample C[C@H]1O[C@@H](n2c3ccccc3c3c4c(c5c6ccccc6[nH]c5c32)CNC4=O)C[C@@H](O)[C@@H]1O [formula (XV), N^13-1′-β-D-olivosyl-k252c] — what was its inhibition at 0.1 µM?
Result block: -2

Query block: Sample C[C@@H]1O[C@@H](n2c3ccccc3c3c4c(c5c6ccccc6[nH]c5c32)CNC4=O)C[C@@H](O)[C@H]1O [formula (XIV), N^13-1′-β-L-digitoxosyl-k252c] — what was its inhibition at 0.1 µM?
Result block: 0

Query block: Sample C[C@@H]1O[C@@H](n2c3ccccc3c3c4c(c5c6ccccc6[nH]c5c32)CNC4=O)C[C@H](O)[C@H]1O [formula (XIII), N^13-1′-β-L-olivosyl-k252c] — what was its inhibition at 0.1 µM?
Result block: 3

Query block: Sample C[C@@H]1O[C@@H](n2c3ccccc3c3c4c(c5c6ccccc6[nH]c5c32)C(=O)NC4=O)[C@H](O)[C@H](O)[C@H]1O — what was its inhibition at 0.1 µM?
Result block: -4

Query block: Sample C[C@@H]1O[C@@H](n2c3ccccc3c3c4c(c5c6ccccc6[nH]c5c32)C(=O)NC4=O)C[C@H](O)[C@H]1O — what was its inhibition at 0.1 µM?
Result block: -3

----------
- tested target: FLT3 (Homo sapiens)
- Construct: purchased Upstate
- Sequence (P36888 27-993, species assumed): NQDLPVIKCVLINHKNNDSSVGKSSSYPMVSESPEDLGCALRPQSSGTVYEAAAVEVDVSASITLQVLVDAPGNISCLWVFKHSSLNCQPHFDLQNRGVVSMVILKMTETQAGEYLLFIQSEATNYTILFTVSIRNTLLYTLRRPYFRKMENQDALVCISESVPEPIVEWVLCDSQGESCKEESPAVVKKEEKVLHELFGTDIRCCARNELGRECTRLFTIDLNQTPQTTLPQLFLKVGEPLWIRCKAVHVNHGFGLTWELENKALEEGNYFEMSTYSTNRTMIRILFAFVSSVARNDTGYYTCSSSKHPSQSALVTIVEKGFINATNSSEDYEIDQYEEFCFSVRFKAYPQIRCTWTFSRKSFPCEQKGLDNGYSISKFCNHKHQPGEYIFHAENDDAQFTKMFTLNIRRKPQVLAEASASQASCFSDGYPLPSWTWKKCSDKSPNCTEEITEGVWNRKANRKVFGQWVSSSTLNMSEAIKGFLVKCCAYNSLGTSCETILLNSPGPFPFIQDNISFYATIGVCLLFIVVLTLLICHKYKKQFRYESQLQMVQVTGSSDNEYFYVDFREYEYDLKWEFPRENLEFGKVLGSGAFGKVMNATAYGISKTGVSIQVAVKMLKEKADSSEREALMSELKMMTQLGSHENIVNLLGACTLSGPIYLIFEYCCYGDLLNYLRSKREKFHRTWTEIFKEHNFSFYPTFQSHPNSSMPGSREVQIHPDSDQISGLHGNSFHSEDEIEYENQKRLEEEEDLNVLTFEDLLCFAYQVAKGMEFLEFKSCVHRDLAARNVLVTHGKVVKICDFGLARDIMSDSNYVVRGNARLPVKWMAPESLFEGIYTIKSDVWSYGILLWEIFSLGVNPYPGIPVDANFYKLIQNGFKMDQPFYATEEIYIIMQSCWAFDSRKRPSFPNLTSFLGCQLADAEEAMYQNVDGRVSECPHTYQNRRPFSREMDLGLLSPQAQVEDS
- method notes: LabChip (Caliper) kinase assay, FLT3
- Type: biochemical
- particulars: FLT3; compound at 100 nM; read-out: remaining kinase activity (in %) / percentage of inhibition
Response field label: string, one of TRUE (inhibition at 0.1 µM strictly below 90%) or FALSE.

Query block: Decide: inhibition at 0.1 µM of C[C@H]1O[C@@H](n2c3ccccc3c3c4c(c5c6ccccc6[nH]c5c32)C(=O)NC4=O)C[C@@H](O)[C@@H]1O [formula (VI), N^13-1′-β-D-olivosylarcyriaflavin] strictly below 90%?
Result block: FALSE

Query block: Decide: inhibition at 0.1 µM of C[C@H]1O[C@@H](n2c3ccccc3c3c4c(c5c6ccccc6[nH]c5c32)CNC4=O)C[C@@H](O)[C@@H]1O [formula (XV), N^13-1′-β-D-olivosyl-k252c] strictly below 90%?
Result block: FALSE

Query block: Decide: inhibition at 0.1 µM of C[C@@H]1O[C@@H](n2c3ccccc3c3c4c(c5c6ccccc6[nH]c5c32)C(=O)NC4=O)[C@H](O)[C@H](O)[C@H]1O [formula (III), N^13-1′-β-L-rhamnosylarcyriaflavin] strictly below 90%?
Result block: TRUE

Query block: Decide: inhibition at 0.1 µM of C[C@@H]1O[C@@H](n2c3ccccc3c3c4c(c5c6ccccc6[nH]c5c32)CNC4=O)[C@H](O)[C@H](O)[C@H]1O [formula (XII), N^13-1′-β-L-rhamnosyl-k252c] strictly below 90%?
Result block: TRUE

----------
Provide the reported inhibition at 0.1 µM of each item.
- tested target: p38a (Homo sapiens)
- Construct: purchased Carna Biosciences
- method notes: LabChip (Caliper) kinase assay, p38a
- Format: biochemical
- particulars: compound at 100 nM, read-out: remaining kinase activity (in %) / percentage of inhibition
Hi! Could you send only the number? It should be in %, unit omitted.

Query block: Sample C[C@H]1O[C@@H](n2c3ccccc3c3c4c(c5c6ccccc6[nH]c5c32)CNC4=O)C[C@@H](O)[C@@H]1O [formula (XV), N^13-1′-β-D-olivosyl-k252c] — what was its inhibition at 0.1 µM?
Result block: -3

Query block: Sample C[C@@H]1O[C@@H](n2c3ccccc3c3c4c(c5c6ccccc6[nH]c5c32)C(=O)NC4=O)C[C@H](O)[C@H]1O [formula (IV), N^13-1′-β-L-olivosylarcyriaflavin] — what was its inhibition at 0.1 µM?
Result block: -2

Query block: Sample C[C@@H]1O[C@@H](n2c3ccccc3c3c4c(c5c6ccccc6[nH]c5c32)CNC4=O)C[C@H](O)[C@H]1O [formula (XIII), N^13-1′-β-L-olivosyl-k252c] — what was its inhibition at 0.1 µM?
Result block: -3

----------
Provide the reported inhibition at 0.1 µM of each item.
- tested target: p38a (Homo sapiens, UniProt Q16539)
- Construct: purchased Carna Biosciences
- Sequence (Q16539 whole entry): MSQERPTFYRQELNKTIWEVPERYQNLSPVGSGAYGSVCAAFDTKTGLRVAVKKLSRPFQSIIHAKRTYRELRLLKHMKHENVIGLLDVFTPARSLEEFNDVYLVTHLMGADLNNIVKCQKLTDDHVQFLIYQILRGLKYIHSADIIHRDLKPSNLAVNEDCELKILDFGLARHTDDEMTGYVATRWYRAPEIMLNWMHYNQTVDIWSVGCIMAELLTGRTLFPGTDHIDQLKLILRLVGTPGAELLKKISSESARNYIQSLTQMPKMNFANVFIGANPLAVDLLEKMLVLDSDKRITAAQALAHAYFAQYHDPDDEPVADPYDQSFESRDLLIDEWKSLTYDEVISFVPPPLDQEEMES
- method notes: LabChip (Caliper) kinase assay, p38a
- Type: biochemical
- particulars: compound at 100 nM, read-out: remaining kinase activity (in %) / percentage of inhibition
Hi! Could you send only the number? It should be in %, unit omitted.

Query block: Sample C[C@@H]1O[C@@H](n2c3ccccc3c3c4c(c5c6ccccc6[nH]c5c32)C(=O)NC4=O)C[C@@H](O)[C@H]1O — what was its inhibition at 0.1 µM?
Result block: -2

Query block: Sample C[C@H]1O[C@@H](n2c3ccccc3c3c4c(c5c6ccccc6[nH]c5c32)C(=O)NC4=O)C[C@@H](O)[C@@H]1O — what was its inhibition at 0.1 µM?
Result block: -1

Query block: Sample C[C@@H]1O[C@@H](n2c3ccccc3c3c4c(c5c6ccccc6[nH]c5c32)CNC4=O)[C@H](O)[C@H](O)[C@H]1O [formula (XII), N^13-1′-β-L-rhamnosyl-k252c] — what was its inhibition at 0.1 µM?
Result block: 0

Query block: Sample C[C@@H]1O[C@@H](n2c3ccccc3c3c4c(c5c6ccccc6[nH]c5c32)C(=O)NC4=O)[C@H](O)[C@H](O)[C@H]1O — what was its inhibition at 0.1 µM?
Result block: -1

Query block: Sample C[C@@H]1O[C@@H](n2c3ccccc3c3c4c(c5c6ccccc6[nH]c5c32)CNC4=O)C[C@@H](O)[C@H]1O [formula (XIV), N^13-1′-β-L-digitoxosyl-k252c] — what was its inhibition at 0.1 µM?
Result block: -2

----------
Provide the reported inhibition at 0.1 µM of each item.
- tested target: FGFR1 (Homo sapiens)
- Construct: purchased Upstate
- Sequence (P11362 22-822, species assumed): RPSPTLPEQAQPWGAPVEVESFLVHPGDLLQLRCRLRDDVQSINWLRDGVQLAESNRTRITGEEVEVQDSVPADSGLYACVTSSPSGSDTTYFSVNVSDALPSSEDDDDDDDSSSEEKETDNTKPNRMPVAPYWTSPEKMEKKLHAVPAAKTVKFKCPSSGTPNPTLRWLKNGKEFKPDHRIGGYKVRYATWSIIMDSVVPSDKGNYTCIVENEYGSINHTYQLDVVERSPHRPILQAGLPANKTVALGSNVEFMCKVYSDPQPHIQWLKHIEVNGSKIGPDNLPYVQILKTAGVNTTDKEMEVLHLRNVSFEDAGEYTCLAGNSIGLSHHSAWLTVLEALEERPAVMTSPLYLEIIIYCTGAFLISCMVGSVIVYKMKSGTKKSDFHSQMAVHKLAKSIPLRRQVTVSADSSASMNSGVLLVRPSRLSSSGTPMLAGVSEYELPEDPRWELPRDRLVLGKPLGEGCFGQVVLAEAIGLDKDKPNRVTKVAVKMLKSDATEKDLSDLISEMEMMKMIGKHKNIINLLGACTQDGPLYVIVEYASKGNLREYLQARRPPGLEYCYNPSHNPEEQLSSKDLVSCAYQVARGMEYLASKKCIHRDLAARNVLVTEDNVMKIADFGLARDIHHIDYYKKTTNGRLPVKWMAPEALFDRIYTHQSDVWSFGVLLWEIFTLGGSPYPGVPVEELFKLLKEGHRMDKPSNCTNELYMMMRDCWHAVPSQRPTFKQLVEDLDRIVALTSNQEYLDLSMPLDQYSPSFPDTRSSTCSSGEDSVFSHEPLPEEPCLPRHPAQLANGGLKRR
- method notes: LabChip (Caliper) kinase assay, FGFR1
- Assay type: biochemical
- particulars: compound at 100 nM, read-out: remaining kinase activity (in %) / percentage of inhibition
Hi! Could you send only the number? It should be in %, unit omitted.

Query block: Sample C[C@@H]1O[C@@H](n2c3ccccc3c3c4c(c5c6ccccc6[nH]c5c32)CNC4=O)C[C@H](O)[C@H]1O [formula (XIII), N^13-1′-β-L-olivosyl-k252c] — what was its inhibition at 0.1 µM?
Result block: 7

Query block: Sample C[C@@H]1O[C@@H](n2c3ccccc3c3c4c(c5c6ccccc6[nH]c5c32)C(=O)NC4=O)C[C@H](O)[C@H]1O — what was its inhibition at 0.1 µM?
Result block: 21

Query block: Sample C[C@@H]1O[C@@H](n2c3ccccc3c3c4c(c5c6ccccc6[nH]c5c32)CNC4=O)C[C@@H](O)[C@H]1O [formula (XIV), N^13-1′-β-L-digitoxosyl-k252c] — what was its inhibition at 0.1 µM?
Result block: 5

Query block: Sample C[C@@H]1O[C@@H](n2c3ccccc3c3c4c(c5c6ccccc6[nH]c5c32)CNC4=O)[C@H](O)[C@H](O)[C@H]1O [formula (XII), N^13-1′-β-L-rhamnosyl-k252c] — what was its inhibition at 0.1 µM?
Result block: 5

Query block: Sample C[C@H]1O[C@@H](n2c3ccccc3c3c4c(c5c6ccccc6[nH]c5c32)C(=O)NC4=O)C[C@@H](O)[C@@H]1O — what was its inhibition at 0.1 µM?
Result block: 25

----------
- tested target: p38a (Homo sapiens)
- Construct: purchased Carna Biosciences
- method notes: LabChip (Caliper) kinase assay, p38a
- Format: biochemical
- particulars: compound at 10 nM, read-out: remaining kinase activity (in %) / percentage of inhibition
- Description: The analysis of kinase activity described here was performed using LabChip (Caliper Life Sciences), specifically the Caliper LC3000 and the EZ Reader II instruments. The kinase assay used measures the conversion of a fluorescent peptide (substrate) to a phosphorylated product. The reaction mixture, in a microplate well, is introduced by a capillary in a chip where the non-phosphorylated substrate and the phosphorylated product are separated by fluorescence induced by laser. […]
Provide the reported inhibition at 0.01 µM of each item.
Write the numeric value and follow it with the unit.

Query block: Sample C[C@@H]1O[C@@H](n2c3ccccc3c3c4c(c5c6ccccc6[nH]c5c32)C(=O)NC4=O)[C@H](O)[C@H](O)[C@H]1O — what was its inhibition at 0.01 µM?
Result block: 0%

Query block: Sample C[C@@H]1O[C@@H](n2c3ccccc3c3c4c(c5c6ccccc6[nH]c5c32)C(=O)NC4=O)C[C@@H](O)[C@H]1O — what was its inhibition at 0.01 µM?
Result block: 1%

Query block: Sample C[C@H]1O[C@@H](n2c3ccccc3c3c4c(c5c6ccccc6[nH]c5c32)C(=O)NC4=O)C[C@@H](O)[C@@H]1O — what was its inhibition at 0.01 µM?
Result block: -1%

# credit: patent US8598132B2
